target: NL20 human bronchial epithelial cells expressing human Z-AAT (Homo sapiens, UniProt P01009, E366K); construct: doxycycline added with compounds); test: AAT Function Assay (MSD Assay NL20-SI Cell Line); conditions: read-out: NL20 Functional EC50
Sequence (P01009 25-418 E366K): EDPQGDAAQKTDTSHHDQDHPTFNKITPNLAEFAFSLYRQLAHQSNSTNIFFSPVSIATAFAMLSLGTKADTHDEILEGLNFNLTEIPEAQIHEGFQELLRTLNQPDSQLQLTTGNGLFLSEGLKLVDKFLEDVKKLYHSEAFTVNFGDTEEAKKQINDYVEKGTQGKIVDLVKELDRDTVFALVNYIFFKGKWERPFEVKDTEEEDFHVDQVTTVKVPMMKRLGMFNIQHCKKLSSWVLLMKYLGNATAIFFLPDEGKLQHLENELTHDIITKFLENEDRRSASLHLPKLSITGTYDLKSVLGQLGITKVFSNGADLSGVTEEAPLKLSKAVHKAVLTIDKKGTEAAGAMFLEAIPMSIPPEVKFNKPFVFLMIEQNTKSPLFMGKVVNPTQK
Listing: EC50 of selected molecules

{"compoundString": "O=C(O)c1ccc(-c2c(C3CCOCC3)n(-c3ccc(F)c(F)c3)c3cc(F)cc(OP(=O)(O)O)c23)cc1", "EC50": "> 2000 nM"}
{"compoundString": "CCC1(c2c(-c3ccc(C(=O)O)cc3)c3c(O)cc(F)cc3n2-c2ccc(F)c(F)c2)COC1", "EC50": "< 500 nM"}
{"compoundString": "COCC(C)(C)c1c(-c2ccc(C(=O)O)cc2)c2c(O)cc(F)cc2n1-c1ccc(OC)c(F)c1", "EC50": "500 to 2000 nM"}
{"compoundString": "Cc1cc(-n2c(C3CCOCC3)c(-c3ccc(C(=O)O)cc3F)c3c(O)cccc32)ccc1F", "EC50": "< 500 nM"}
{"compoundString": "CNc1cc(-c2c(C(C)(C)COC)n(-c3ccc(F)c(OC)c3)c3cc(F)cc(O)c23)ccc1C(=O)O", "EC50": "< 500 nM"}
{"compoundString": "N#Cc1cc(C(=O)O)ccc1-c1c(C2CCOCC2)n(-c2ccc(F)c(F)c2)c2cccc(O)c12", "EC50": "> 2000 nM"}
{"compoundString": "O=C(O)c1ccc(-c2c(C3CCOCC3)n(-c3ccc(F)cc3)c3c(F)cc(F)c(O)c23)cc1", "EC50": "500 to 2000 nM"}

* * *

molecular target: NL20 human bronchial epithelial cells expressing human Z-AAT (Homo sapiens, UniProt P01009, E366K); construct: doxycycline added with compounds); test: AAT Function Assay (MSD Assay NL20-SI Cell Line); conditions: read-out: NL20 Functional EC50
pEC50: −log10 of the molar value.
outcomeMeasure: pEC50

{"compoundString": "COCC(C)(C)c1c(-c2ccc(C(=O)O)cc2)c2c(O)cc(Cl)cc2n1-c1ccc(F)cc1", "outcomeMeasure": "pEC50", "result": "> 6.30"}
{"compoundString": "CC(C)c1c(-c2cnc(C(=O)O)c(F)c2)c2c(O)cccc2n1-c1ccc(F)cc1", "outcomeMeasure": "pEC50", "result": "5.70 to 6.30"}
{"compoundString": "CC(CO)(CO)c1c(-c2ccc(C(=O)O)cc2)c2c(O)c(F)ccc2n1-c1ccc(F)cc1", "outcomeMeasure": "pEC50", "result": "< 5.70"}
{"compoundString": "COc1cc(-n2c(C(C)(C)CC#N)c(-c3ccc(OC)c(C(=O)O)c3)c3c(O)cc(F)cc32)ccc1F", "outcomeMeasure": "pEC50", "result": "5.70 to 6.30"}
{"compoundString": "COCC(C)(C)c1c(-c2ccc(C(=O)O)cc2)c2c(O)cc(F)cc2n1-c1ccc(C)c(F)c1", "outcomeMeasure": "pEC50", "result": "< 5.70"}
{"compoundString": "CNc1ncc(-c2c(C3CCOCC3)n(-c3ccc(F)cc3)c3cccc(O)c23)cn1", "outcomeMeasure": "pEC50", "result": "< 5.70"}
{"compoundString": "COc1cc(-n2c(C(C)(C)CC#N)c(-c3ccc(C(=O)O)c(F)c3)c3c(O)cc(Cl)cc32)ccc1F", "outcomeMeasure": "pEC50", "result": "> 6.30"}

* * *

biological target: NL20 human bronchial epithelial cells expressing human Z-AAT (Homo sapiens, UniProt P01009, E366K); construct: doxycycline added with compounds); assay: AAT Function Assay (MSD Assay NL20-SI Cell Line); conditions: read-out: NL20 Functional EC50

{"compound": "COCC(C)(C)c1c(-c2ccc(C(=O)O)cc2)c2c(O)c(F)ccc2n1-c1ccc(F)cc1", "EC50": "< 500 nM"}
{"compound": "CC(C)(CC#N)c1c(-c2ccc(C(=O)O)s2)c2c(O)c(F)ccc2n1-c1ccc(F)c(F)c1", "EC50": "500 to 2000 nM"}
{"compound": "CC(C)(CC#N)c1c(-c2ccc(C(=O)O)cc2)c2c(O)c(F)ccc2n1-c1ccc(F)c(F)c1", "EC50": "< 500 nM"}
{"compound": "Cc1cc(-n2c(C(C)C)c(-c3ccnc(C(=O)O)c3)c3cc(F)ccc32)ccc1F", "EC50": "> 2000 nM"}
{"compound": "C[C@]1(O)CC[C@H](c2c(-c3ccc(C(=O)O)cc3)c3c(O)cccc3n2-c2ccc(F)cc2)CC1", "EC50": "> 2000 nM"}
{"compound": "Cc1cc(-n2c(C(C)(C)CC#N)c(-c3ccc(C(=O)O)cc3F)c3c(O)cc(Cl)cc32)ccc1F", "EC50": "< 500 nM"}
{"compound": "Cc1cc(-n2c(C3CCOCC3)c(-c3ccc4c(c3)COC4=O)c3c(O)cc(F)cc32)ccc1F", "EC50": "< 500 nM"}
{"compound": "COc1cc(-n2c(C(C)(C)CC#N)c(-c3cc(C)c(OC)c(C(=O)O)c3)c3c(O)cc(F)cc32)ccc1F", "EC50": "500 to 2000 nM"}
{"compound": "CC(=O)N1CCCC(c2c(-c3ccc(C(=O)O)cc3)c3c(O)cccc3n2-c2ccc(F)cc2)C1 (stereo not drawn)", "EC50": "> 2000 nM"}
{"compound": "Cc1cc(-n2c(C3CCOCC3)c(CC3(C(=O)O)CC3)c3cc(F)ccc32)ccc1F", "EC50": "> 2000 nM"}
{"compound": "O=C(O)c1ccc(-c2c(C3CC4CCC(C3)O4)n(-c3ccc(F)c(F)c3)c3cc(F)cc(O)c23)cc1 (stereo not drawn)", "EC50": "< 500 nM"}
{"compound": "O=C(O)c1ccc(-c2c(C3CCOCC3)n(-c3ccc(F)c(F)c3)c3cc(F)cc(O)c23)cc1O", "EC50": "< 500 nM"}
{"compound": "O=C(O)c1cc(-c2c(C3CCOCC3)n(-c3ccc(F)cc3)c3cccc(O)c23)ccc1F", "EC50": "> 2000 nM"}
{"compound": "Cc1cc(-n2c(C3CCOCC3)c(C3CC4(CC(C(=O)O)C4)C3)c3cc(F)ccc32)ccc1F (stereo not drawn) [Compound W6]", "EC50": "500 to 2000 nM"}
{"compound": "NC(=O)c1ccc(-c2c(C3CCOCC3)n(-c3ccc(F)c(F)c3)c3cccc(O)c23)cc1F", "EC50": "< 500 nM"}
{"compound": "Cc1cc(-n2c(C(C)(C)COC(=O)NC3CCCC3)c(-c3ccc(C(=O)O)cc3)c3c(O)c(F)ccc32)ccc1F", "EC50": "> 2000 nM"}
{"compound": "Cc1cc(-n2c(C3CCOCC3)c(-c3ccc(C(=O)O)cc3)c3c(O)cccc32)ccn1", "EC50": "> 2000 nM"}
{"compound": "Cc1cc(-n2c(C(C)(C)COc3ncccn3)c(-c3ccc(C(=O)O)cc3)c3c(O)cccc32)ccc1F", "EC50": "< 500 nM"}
{"compound": "Cc1cc(-n2c(C3CCOCC3)c(C3CC4(CC(C(=O)O)C4)C3)c3cccc(F)c32)ccc1F (stereo not drawn)", "EC50": "> 2000 nM"}
{"compound": "Cc1cc(-n2c(C(C)C)c(S(=O)(=O)CC(C)C(=O)O)c3cc(F)ccc32)ccc1F (stereo not drawn)", "EC50": "> 2000 nM"}
{"compound": "CC(C)(COC(F)F)c1c(-c2ccc(C(=O)O)cc2)c2c(O)cccc2n1-c1ccc(F)cc1", "EC50": "< 500 nM"}
{"compound": "O=C(O)c1ccc(-c2c(C3C[C@H]4COC[C@H]4C3)n(-c3ccc(F)c(F)c3)c3cc(F)cc(O)c23)cc1 (stereo partly drawn)", "EC50": "500 to 2000 nM"}
{"compound": "Cc1cc(-n2c(C3CCOCC3)c(-c3ccc(C(=O)O)c(F)c3F)c3c(O)cc(F)cc32)ccc1F", "EC50": "< 500 nM"}
{"compound": "COCC1(c2c(-c3ccc(C(=O)O)cc3)c3c(O)cc(Cl)cc3n2-c2ccc(F)c(F)c2)COC1", "EC50": "500 to 2000 nM"}
{"compound": "COCC(C)(C)c1c(-c2ccc(C(=O)O)cc2)c2c(N)cc(F)cc2n1-c1ccc(F)c(F)c1", "EC50": "< 500 nM"}
{"compound": "CC(C)(CC#N)c1c(-c2ccc(C(=O)O)cc2)c2c(O)c(F)ccc2n1-c1ccc(F)cc1", "EC50": "< 500 nM"}
{"compound": "CCC1(c2c(-c3ccc(C(=O)O)cc3)c3c(O)cc(F)cc3n2-c2ccc(F)c(Cl)c2)COC1", "EC50": "< 500 nM"}
{"compound": "COc1cc(C(=O)O)cc(-c2c(C3CCOCC3)n(-c3ccc(F)cc3)c3cccc(O)c23)c1", "EC50": "> 2000 nM"}
{"compound": "O=C(O)c1ccc(-c2c(C3CCOCC3)n(-c3ccc(F)c(F)c3)c3cc(Cl)cc(O)c23)c(F)c1", "EC50": "< 500 nM"}
{"compound": "COc1cc(-n2c(C3CC(OC)C3)c(-c3ccc(C(=O)O)cc3)c3c(O)cc(F)cc32)ccc1F (stereo not drawn)", "EC50": "500 to 2000 nM"}
